Exercise: for every item that follows, state its recorded protein stability index.
B1: TMEM106C (parent)
chain: YVTTNVSLIPPRSEQLVNFTGKAE

Variants of: B1
Protocol Description: protein stability index of a GFP-peptide fusion (GPS, HEK-293T) (PSI 1-6); higher = more stable;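 also: lentivirally expressed fusions sorted by FACS into six bins by GFP to DsRed ratio, PSI derived from sequencing read proportions per bin multiplied by bin number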
Condition Parameters: c terminus: a fixed tail appended
Give bare numbers.

Worked cases, answers included:
# Mutant Label, Measurement
records = [
    ("N18K", 2.71),
    ("T20C", 2.34),
    ("L8S", 2.26),
]

// batch mode: one protein stability index value per listed entry
1. S7K
2. F19S
3. E24M
4. N18H
5. I9P

OUTPUT:
1.36
2.71
2.05
2.38
1.81
